Exercise: for every item that follows, state its recorded Ki.
# TGT: T1, muPA-K41A (murine)
# T1 construct: site directed mutant of full length muPA; numbers count on: chymotrypsin numbering; Two-chain form after plasmin; source: HEK293 6E, transfected; treated with plasmin
# ASSAY_EXPLANATION: enzyme inhibition (steady state, chromogenic substrate S-2444); about 2 nM enzyme (purified or conditioned medium of transfected cells) pre-incubated 15 min with varied peptide in HBS (10 mM HEPES pH 7.4, 140 mM NaCl) with 0.1% BSA at 37°C; substrate about KM; fit for competitive inhibition; highest peptide concentration 400 µM
Bridge positions count the residues as written; N and C are the ends. Square brackets hold non-standard residues; d marks the D form. Ends that are not written are not given here. Ala(1-amidino-4-piperidyl) = N=C(N)N1CCC(C[C@H](N)C(=O)O)CC1; Phe(4-guanidino) = N=C(N)Nc1ccc(C[C@H](N)C(=O)O)cc1
Answers are plain numbers, in nM.

The following binders have reported results that may help.
*Q* Returns the measured Ki for the input binder. Input: CPAYS[Ala(1-amidino-4-piperidyl)]YLAC (disulfide 1-10; not fully specified) [Mupain-1-16 D9A]
*A* 14

*Q* # iterate: CPAYS[Ala(1-amidino-4-piperidyl)]YLDC (disulfide 1-10; not fully specified) [mupain-1-16]
*A* 300

Now examine the next entry.
*Q* Endpoint output: Ki of CPAYS[Phe(4-guanidino)]YLDC (disulfide 1-10) [mupain-1-12] . Value?
*A* 1720

All values here come from paper PMC4278837.
